The reported numbers originate from PubChem BioAssay (NCI).

- Test system: HCT-116 colon
- assay-name: NCI tumour cell line growth inhibition, 48 h
Record met whenever TGI is at 30 µM or higher; record not met when lower.

Test whether the compound Cc1cc(O)ccc1C1(c2ccc(F)cc2)OC(=O)c2ccccc21 (stereo unspecified) records TGI of 30 µM or higher.
not met

Test whether the compound C=C1CC[C@@H]2[C@](C)(COC(C)=O)[C@H](OC(C)=O)CC[C@@]2(C)[C@@H]1CC(Nc1ccc(S(=O)(=O)Nc2nccs2)cc1)C1=CCOC1=O (stereo partly specified) records TGI of 30 µM or higher.
not met

Test whether the compound CN(/N=N/c1nc[nH]c1C(N)=O)C1CCCCC1 records TGI of 30 µM or higher.
met

---
Test whether the compound COc1cc2c(cc1-c1coc3cc(OCC=C(C)C)ccc3c1=O)OCO2 records TGI of 30 µM or higher.
met

Test whether the compound C=C1C(=O)O[C@H]2[C@H]1CC/C(CNC(=O)/C=C/c1ccccc1)=C\CC[C@@]1(C)O[C@@H]21 records TGI of 30 µM or higher.
not met

Test whether the compound Nc1ccc(C(=O)NN2C(=O)C(Cl)C2c2cccc(O)c2)cc1 (stereo unspecified) records TGI of 30 µM or higher.
not met

---

Entries annotated with measured TGI
- Tested on: CAKI-1 renal
- assay-name: NCI tumour cell line growth inhibition, 48 h

Worked examples follow.
// lookup TGI for COc1cc(/C=N\NC(=O)C[N+](C)(C)C)cc(OC)c1OC
> 10 µM

// lookup TGI for Nc1ccc(-c2nc3ccc(F)cc3s2)cc1
95.5 µM

// lookup TGI for Cc1nc2c(sc(=S)n2-c2ccccc2)c2nc3ccccc3n12
> 100 µM

// lookup TGI for CN1CCN(c2cc3nc4ccccc4n(-c4ccc(Cl)cc4)c-3cc2=N)CC1
82 µM

// lookup TGI for COc1cccc(C2C(C#N)=C(N)Oc3c2ccc2ccccc32)c1 (configuration not stated)
14 µM

// lookup TGI for COP(=O)(OC)C(NC=O)P(=O)(OC)OC
> 100 µM

// lookup TGI for CC(C)=Nn1cnc(C(=N)C#N)c1N
> 100 µM

// lookup TGI for O/N=C1\CCc2nonc2\C1=N/Nc1ccccc1
> 100 µM

// lookup TGI for COc1ccc2c(c1)C(=O)c1c-2c(N2CCNCC2)nc2ccccc12
30.3 µM

// lookup TGI for C#C[C@H]1CCCCCC1O (some centres not stated)
> 100 µM

---
// lookup TGI for NC(=O)c1cccc(-c2cc(C(N)=O)ccc2Cl)c1
> 100 µM

// lookup TGI for N#CC(C#N)=C(N)/C(C#N)=C/c1ccc2[nH]ccc2c1
> 100 µM

// lookup TGI for O=c1[nH]cnc2sc(=S)c3c(c12)CCC3
49.4 µM

---

- Test system: NCI-H226 lung
- assay-name: NCI tumour cell line growth inhibition, 48 h
Entries annotated with measured TGI

// lookup TGI for CC(NNC(=O)c1ccncc1)c1ccc(Cl)c(Cl)c1 (configuration not stated)
> 100 µM

Shift focus to the following entry.
// lookup TGI for O=C(Nc1cnc(C(F)(F)F)cn1)c1cc(Cl)ccc1O
23.9 µM

---

- Test system: NCI-H23 lung
- assay-name: NCI tumour cell line growth inhibition, 48 h
measurement-kind: TGI

Worked examples follow.
// lookup TGI for CCN(CC)CCCC(C)Nc1c(Sc2cnc3cc(Cl)ccc3c2NC(C)CCCN(CC)CC)cnc2cc(Cl)ccc12 (stereo unspecified)
9.25 µM

// lookup TGI for CC1=C(Cl)C[C@@H](/C(C)=C\Cl)O[C@@]1(O)C(Br)Br
> 100 µM

// lookup TGI for Cc1oc2c(c1C(=O)N1CC[C@@H](N)C1)C(=O)c1c(c(O)c3ccccc3c1O)C2=O
12.2 µM

// lookup TGI for N=C(N)SCCCN
41.2 µM

// lookup TGI for O=C(O)c1cc(Cl)cc2c1NC1(N2)C(=O)Nc2ccccc21 (stereo unspecified)
> 100 µM

---
// lookup TGI for COC(=O)C#CCC1CCCC1C1SCCS1 (stereo unspecified)
> 100 µM

// lookup TGI for Nc1ccc(-c2nc3ccc(F)cc3s2)cc1
> 100 µM

// lookup TGI for COc1cc(/C=N\NC(=O)C[N+](C)(C)C)cc(OC)c1OC
> 10 µM

// lookup TGI for O=C(O)[C@@H](NS(=O)(=O)c1ccc2ccccc2c1)c1ccccc1
> 100 µM
